Source of measurements: the supplement of paper PMC11061612

tested on: NUGC-3 (Gastric Carcinoma); assay: Bliss excess, mean over the matrix (fraction); higher = more synergy;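 further: after 72 h of two-drug dosing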
Some compounds, each annotated with its measured Bliss excess.

| COMPOUND | Bliss excess |
| --- | --- |
| CCN(CCO)CCCOc1ccc2c(Nc3cc(CC(=O)Nc4cccc(F)c4)[nH]n3)ncnc2c1 [AZD2811] + C=CCn1c(=O)c2cnc(Nc3ccc(N4CCN(C)CC4)cc3)nc2n1-c1cccc(C(C)(C)O)n1 [AZD1775] (first compound max 1 µM, partner max 1 µM) | 0.0104 |

INPUT: Write down the reported Bliss excess (system: NUGC-3 (Gastric Carcinoma)) of CS(=O)(=O)CCNCc1ccc(-c2ccc3ncnc(Nc4ccc(OCc5cccc(F)c5)c(Cl)c4)c3c2)o1 [Lapatinib] + NC1(c2ccc(-c3nc4ccn5c(=O)[nH]nc5c4cc3-c3ccccc3)cc2)CCC1 [MK-2206] (first compound max 10 µM, 7x7, partner max 10 µM)
OUTPUT: 0.0527

INPUT: Write down the reported Bliss excess (system: NUGC-3 (Gastric Carcinoma)) of CC1(C)CCC(CN2CCN(c3ccc(C(=O)NS(=O)(=O)c4ccc(NCC5CCOCC5)c([N+](=O)[O-])c4)c(Oc4cnc5[nH]ccc5c4)c3)CC2)=C(c2ccc(Cl)cc2)C1 [Venetoclax] + CN(C)CCCOc1ccc(-c2ccc3ncc4c(c3c2)n(C2CCOCC2)c(=O)n4C)cn1 [AZD0156] (first compound max 1 µM, 7x7, partner max 1 µM)
OUTPUT: -0.0035

----------
Some compounds, each annotated with its measured Bliss excess.
test system: KARPAS-299 (T-Cell Non-Hodgkin's Lymphoma); assay: Bliss excess, mean over the matrix (fraction); higher = more synergy
Lab note: record just the number, no unit beside it.

Recorded Bliss excess, per entry:
| COMPOUND | Bliss excess |
| --- | --- |
| C[C@@H](c1ccc2nccn2c1)n1nnc2ncc(-c3cnn(C)c3)nc21 [Savolitinib] + CC1(C)CCC(CN2CCN(c3ccc(C(=O)NS(=O)(=O)c4ccc(NCC5CCOCC5)c([N+](=O)[O-])c4)c(Oc4cnc5[nH]ccc5c4)c3)CC2)=C(c2ccc(Cl)cc2)C1 [Venetoclax] (first compound max 1 µM, 7x7, partner max 1 µM) | -0.0121 |
| O=C(c1cc(Cc2n[nH]c(=O)c3ccccc23)ccc1F)N1CCN(C(=O)C2CC2)CC1 [Olaparib] + CC1(C)CCC(CN2CCN(c3ccc(C(=O)NS(=O)(=O)c4ccc(NCC5CCOCC5)c([N+](=O)[O-])c4)c(Oc4cnc5[nH]ccc5c4)c3)CC2)=C(c2ccc(Cl)cc2)C1 [Venetoclax] (first compound max 10 µM, 7x7, partner max 1 µM) | 0.0277 |
| Cn1cnc2c(F)c(Nc3ccc(Br)cc3Cl)c(C(=O)NOCCO)cc21 [Selumetinib] + CCN(CCO)CCCOc1ccc2c(Nc3cc(CC(=O)Nc4cccc(F)c4)[nH]n3)ncnc2c1 [AZD2811] (first compound max 10 µM, 7x7, partner max 1 µM) | 0.0227 |
| CC1(C)CCC(CN2CCN(c3ccc(C(=O)NS(=O)(=O)c4ccc(NCC5CCOCC5)c([N+](=O)[O-])c4)c(Oc4cnc5[nH]ccc5c4)c3)CC2)=C(c2ccc(Cl)cc2)C1 [Venetoclax] + C[C@@H](Nc1cc(F)cc(F)c1)c1cc(C(=O)N(C)C)cc2c(=O)cc(N3CCOCC3)oc12 [AZD8186] (first compound max 1 µM, 7x7, partner max 3 µM) | -0.0074 |

INPUT: Write down Bliss excess measured for item COc1nnc2ccc(N3CCC(c4ccc(OCCN5CCN(C)C(=O)[C@H]5C)cc4)CC3)nn12 [AZD5153] + CCN(CCO)CCCOc1ccc2c(Nc3cc(CC(=O)Nc4cccc(F)c4)[nH]n3)ncnc2c1 [AZD2811] (first compound max 1 µM, 7x7, partner max 1 µM)
OUTPUT: -0.0009

INPUT: Write down Bliss excess measured for item Cc1c2c(nn1C)CSCc1cc(n(C)n1)CSc1cc(c3ccccc3c1)OCCCc1c(C(=O)O)n(C)c3c-2c(Cl)ccc13 [AZD5991] + CS(=O)(=O)CCNCc1ccc(-c2ccc3ncnc(Nc4ccc(OCc5cccc(F)c5)c(Cl)c4)c3c2)o1 [Lapatinib] (first compound max 1 µM, 7x7, partner max 10 µM)
OUTPUT: 0.0227

INPUT: Write down Bliss excess measured for item C[C@@H](Nc1cc(F)cc(F)c1)c1cc(C(=O)N(C)C)cc2c(=O)cc(N3CCOCC3)oc12 [AZD8186] + CC(=O)c1c(C)c2cnc(Nc3ccc(N4CCNCC4)cn3)nc2n(C2CCCC2)c1=O [Palbociclib] (first compound max 10 µM, 7x7, partner max 10 µM)
OUTPUT: 0.0912
